# tested on: T1, AFP158/HLA-A*02:01 complex (human)
# T1 construct: flowed as analyte in SPR
# procedure summary: SPR, crude scFv captured, pMHC analyte;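 further: Peptide-MHC complex at several concentrations passed over captured scFv, association then buffer-driven dissociation, on- and off-rates fitted from the curves and KD estimated from them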
Please go through the items and note down their kon.
Answer format: value, then unit.

Fill blank: measured kon of the binder AS170036 VL1VH1-VHG56F (scFv) scFv: QSALTQPRSVSGSPGQSVTISCAGTSSDVGSENYVSWYQQHPGKAPKLMIYQVNKRASGVPDRFSGSKSGNTASLTISGLQAEDEADYYCASYRSSDHNIVFGGGTKLTVLGGGGSGGGGSGGGGSEVQLVESGGGLVQPGGSLRLSCAASGFTFSSYAMSWVRQAPGKGLEWVSTINSGTFSPYYADSVKGRFTISRDNSKNTLYLQMNSLRAEDTAVYYCAKNFFDGSWFLGPPAMDYWGQGTLVTVSSHHHHHH is ____.
230000 M⁻¹ s⁻¹

Please look up its kon: AS170036 VL1VH1-VHS57H (scFv) scFv: QSALTQPRSVSGSPGQSVTISCAGTSSDVGSENYVSWYQQHPGKAPKLMIYQVNKRASGVPDRFSGSKSGNTASLTISGLQAEDEADYYCASYRSSDHNIVFGGGTKLTVLGGGGSGGGGSGGGGSEVQLVESGGGLVQPGGSLRLSCAASGFTFSSYAMSWVRQAPGKGLEWVSTINSGTGHPYYADSVKGRFTISRDNSKNTLYLQMNSLRAEDTAVYYCAKNFFDGSWFLGPPAMDYWGQGTLVTVSSHHHHHH
170000 M⁻¹ s⁻¹

// kon lookup, key: AS170036 VL1VH1-VLH98T (scFv) scFv: QSALTQPRSVSGSPGQSVTISCAGTSSDVGSENYVSWYQQHPGKAPKLMIYQVNKRASGVPDRFSGSKSGNTASLTISGLQAEDEADYYCASYRSSDTNIVFGGGTKLTVLGGGGSGGGGSGGGGSEVQLVESGGGLVQPGGSLRLSCAASGFTFSSYAMSWVRQAPGKGLEWVSTINSGTGSPYYADSVKGRFTISRDNSKNTLYLQMNSLRAEDTAVYYCAKNFFDGSWFLGPPAMDYWGQGTLVTVSSHHHHHH
290000 M⁻¹ s⁻¹
